B1: PPFIA4 (parent)
chain: VMTLPSDLRKHRRKLLSPVSREEN

variants of: B1; experiment: protein stability index of a GFP-peptide fusion (GPS, HEK-293T) (PSI 1-6); higher = more stable; conditions: c terminus: a fixed tail appended;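 also: lentivirally expressed fusions sorted by FACS into six bins by GFP to DsRed ratio, PSI derived from sequencing read proportions per bin multiplied by bin number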
Assignment: determine reported protein stability index for the given variants.
Give the value as a plain number.

Ask: Answer with the recorded protein stability index for the variant listed here: VMTLPSDLRKHRRRLLSPVSREEN [K14R]
Result: 3.32

Ask: For the variant VMTLPSDLRNHRRKLLSPVSREEN [K10N] , report protein stability index.
Result: 3.77

Ask: Respond only with protein stability index recorded for VMTLPSDLRKHRRKLLSPVSREYN [E23Y]
Result: 2.96

Ask: Given VMTLPSDLLKHRRKLLSPVSREEN [R9L] , respond with its protein stability index.
Result: 3.59

Ask: Supply recorded protein stability index for FMTLPSDLRKHRRKLLSPVSREEN [V1F] here.
Result: 2.83

Ask: Provide measured protein stability index value, entry: VMTLPSDLRKHRLKLLSPVSREEN [R13L]
Result: 4.05

Ask: Return reported protein stability index. Input variant: VMTLPSDLRKHRRKLHSPVSREEN [L16H]
Result: 3.89

Ask: Let me know recorded protein stability index for VMTLPSDLEKHRRKLLSPVSREEN [R9E] , thanks.
Result: 4.11

Ask: For the variant VMTLPEDLRKHRRKLLSPVSREEN [S6E] , report protein stability index.
Result: 3.85

Ask: Please give measured protein stability index of the following entry: VMTLPSDLRKHRRKLLSPVSREKN [E23K]
Result: 3.72

Ask: Entry VMTLPSDLRKHGRKLLSPVSREEN [R12G] needs its protein stability index filled in; supply it.
Result: 3.86

Ask: Give a short answer stating reported protein stability index for VMTNPSDLRKHRRKLLSPVSREEN [L4N] .
Result: 4.23

Ask: Look up and report measured protein stability index for this entry: VMTLPSDLRKWRRKLLSPVSREEN [H11W]
Result: 3.24

Ask: Read the entry VMTLPSDLRKHRRKLLSPVSRLEN [E22L] and write its reported protein stability index.
Result: 2.26

Ask: For the variant VMTLPSDLRKHRRKALSPVSREEN [L15A] , report protein stability index.
Result: 4.08

Ask: Please list protein stability index recorded for the variant VMTLPSDLRKHRRKLLSPLSREEN [V19L]
Result: 3.43

Ask: Write down protein stability index measured for item VETLPSDLRKHRRKLLSPVSREEN [M2E]
Result: 4.54

Ask: Specify measured protein stability index for VMTLPSDLRKHRRKLLSPFSREEN [V19F] .
Result: 2.85

Ask: Entry VMTCPSDLRKHRRKLLSPVSREEN [L4C] needs its protein stability index filled in; supply it.
Result: 4.31

Ask: Return protein stability index for the following variant: VMTLPSDLRKHRRKLLSPVSRVEN [E22V]
Result: 3.86

Ask: For the variant GMTLPSDLRKHRRKLLSPVSREEN [V1G] , report protein stability index.
Result: 3.31

Ask: Given VMTLPSDLRKHRRKLLSPVSREEC [N24C] , respond with its protein stability index.
Result: 3.33

Ask: Identify the reported protein stability index for the following entry. VMTLPSDLRKHRYKLLSPVSREEN [R13Y]
Result: 3.63

Ask: Give the reported value of protein stability index for this record: VMTLPSMLRKHRRKLLSPVSREEN [D7M]
Result: 2.94

Ask: Report protein stability index, nothing else, for this variant: VMTLPSDLRKHRRKLLSPVSREEF [N24F]
Result: 2.44

Ask: Check the records and state protein stability index for VMTYPSDLRKHRRKLLSPVSREEN [L4Y]
Result: 3.45

Ask: Specify measured protein stability index for VMTLPSILRKHRRKLLSPVSREEN [D7I] .
Result: 2.72

Ask: Answer with the recorded protein stability index of VMTLPSDLIKHRRKLLSPVSREEN [R9I] only.
Result: 3.69

Ask: Give the reported protein stability index for this variant. VMTLPSDLRKHRRKLLSPVFREEN [S20F]
Result: 2.54

Ask: For the variant VMTLPSDLRKHRRKLPSPVSREEN [L16P] , give its reported protein stability index.
Result: 4.12

Ask: Please give the documented protein stability index of VMWLPSDLRKHRRKLLSPVSREEN [T3W]
Result: 2.26

Ask: Please give measured protein stability index of the following entry: VMTLPSDLRKHRRKLLSPVSRQEN [E22Q]
Result: 3.19

Ask: Fill in protein stability index for record VMTLPSDLRKHRRNLLSPVSREEN [K14N]
Result: 3.9

Ask: Write down protein stability index measured for item QMTLPSDLRKHRRKLLSPVSREEN [V1Q]
Result: 4.35

Ask: Quick one: give measured protein stability index for VMTQPSDLRKHRRKLLSPVSREEN [L4Q]
Result: 4.02

Ask: Return value of protein stability index for input VMTLPSDLRKHRRKLNSPVSREEN [L16N] , no commentary.
Result: 3.87

Ask: Tell me its protein stability index given VMTLPSFLRKHRRKLLSPVSREEN [D7F] as the entry.
Result: 2.57

Ask: Please list protein stability index recorded for the variant VMTLPSDHRKHRRKLLSPVSREEN [L8H]
Result: 3.9

Ask: Kindly indicate its recorded protein stability index. Item: VMTGPSDLRKHRRKLLSPVSREEN [L4G]
Result: 4.45

Ask: Output measured protein stability index for this item: LMTLPSDLRKHRRKLLSPVSREEN [V1L]
Result: 3.27

Ask: Output protein stability index of VMTLPSDLRKHRRKLLSPVSREVN [E23V]
Result: 3.1

Ask: Return value of protein stability index for input VMTLPSDLRKHRRKRLSPVSREEN [L15R] , no commentary.
Result: 3.92

Ask: Please list protein stability index recorded for the variant VMTLFSDLRKHRRKLLSPVSREEN [P5F]
Result: 2.1

Ask: Retrieve protein stability index measured for VMTLPSDLKKHRRKLLSPVSREEN [R9K] and print it.
Result: 4

Ask: State its protein stability index for this variant: VMTLPSDLRVHRRKLLSPVSREEN [K10V]
Result: 2.96

Ask: Quote protein stability index reported for VMTLPSDLRKHRRKLLSPTSREEN [V19T] please.
Result: 4.18

Ask: Respond only with protein stability index recorded for IMTLPSDLRKHRRKLLSPVSREEN [V1I]
Result: 3.55

Ask: Answer with the recorded protein stability index of VMTLPSDLRKHLRKLLSPVSREEN [R12L] only.
Result: 2.95

Ask: Return value of protein stability index for input EMTLPSDLRKHRRKLLSPVSREEN [V1E] , no commentary.
Result: 4.2

Ask: Fill in reported protein stability index for this entry: VHTLPSDLRKHRRKLLSPVSREEN [M2H]
Result: 4.02

Ask: Determine its reported protein stability index: VMTLPSDLRKHRRKLLSTVSREEN [P18T]
Result: 4.31

Ask: Look up and report measured protein stability index for this entry: VMTLPSDLRKHRRKLLSQVSREEN [P18Q]
Result: 2.92

Ask: Determine its reported protein stability index: VMTLPSDLRKHRRKLFSPVSREEN [L16F]
Result: 3.29

Ask: Write down protein stability index measured for item VATLPSDLRKHRRKLLSPVSREEN [M2A]
Result: 4.31

Ask: Please supply the value of reported protein stability index for the item VMTLPSDLRKHRRKLESPVSREEN [L16E]
Result: 4.29

Ask: Note protein stability index for the variant shown: VMTLPSDLRKHRRFLLSPVSREEN [K14F]
Result: 3.54

Ask: Hello, please tell me recorded protein stability index for this one: VMTLPSDLRKHRRKLLSPVSEEEN [R21E]
Result: 4.47

Ask: Find the measured protein stability index of AMTLPSDLRKHRRKLLSPVSREEN [V1A] and report it.
Result: 3.93

Ask: # return recorded protein stability index for entry VMTLPSDLRKHRRKLGSPVSREEN [L16G]
Result: 4.43

Ask: Find the measured protein stability index of VMTVPSDLRKHRRKLLSPVSREEN [L4V] and report it.
Result: 3.77

Ask: Look up and state reported protein stability index for VKTLPSDLRKHRRKLLSPVSREEN [M2K]
Result: 3.82

Ask: Annotate the variant VMTLPSDLRKHRRKLLHPVSREEN [S17H] with its measured protein stability index.
Result: 3.93

Ask: Identify protein stability index associated with the variant VMTIPSDLRKHRRKLLSPVSREEN [L4I]
Result: 3.42

Ask: Could you please provide reported protein stability index for VMTLPSDLRKHRRKLLSYVSREEN [P18Y] ? Thanks!
Result: 3.42

Ask: Provide one value: measured protein stability index of VMNLPSDLRKHRRKLLSPVSREEN [T3N]
Result: 2.82

Ask: Return value of protein stability index for input VMTLPSDLRKQRRKLLSPVSREEN [H11Q] , no commentary.
Result: 2.93

Ask: Give the measured protein stability index for VMTLPSDLRKCRRKLLSPVSREEN [H11C]
Result: 3.69

Ask: Given the variant VMTLPSDLRKHRRKLLKPVSREEN [S17K] , write its reported protein stability index.
Result: 3.66

Ask: Specify protein stability index for VMTLPSDWRKHRRKLLSPVSREEN [L8W] and stop.
Result: 3.22

Ask: Find the measured protein stability index of VMTLPSDLRKHRRKLLSPVIREEN [S20I] and report it.
Result: 3.84

Ask: Give recorded protein stability index. VYTLPSDLRKHRRKLLSPVSREEN [M2Y]
Result: 3.15

Ask: Determine its reported protein stability index: VMTLPSDLRKHRRKLLLPVSREEN [S17L]
Result: 3.73

Ask: Please list protein stability index recorded for the variant VMTLPSDLRKHRRKLLSPVSREER [N24R]
Result: 3.73

Ask: Tell me measured protein stability index for VMTLPSDCRKHRRKLLSPVSREEN [L8C] please.
Result: 4.04

Ask: Specify protein stability index for VMTLPSDLRKHRRKLLNPVSREEN [S17N] and stop.
Result: 3.88

Ask: Check the records and state protein stability index for VMTLPSDLRKRRRKLLSPVSREEN [H11R]
Result: 3.99

Ask: Output protein stability index of VMTRPSDLRKHRRKLLSPVSREEN [L4R]
Result: 3.25

Ask: Give the reported value of protein stability index for this record: VMTLPSDNRKHRRKLLSPVSREEN [L8N]
Result: 3.74

Ask: Provide one value: measured protein stability index of VMTLPSDLRKHRRKLLSPGSREEN [V19G]
Result: 4.31

Ask: Provide protein stability index value for the following variant: VMTLPSDLRKVRRKLLSPVSREEN [H11V]
Result: 3.35

Ask: Complete the entry with protein stability index for VNTLPSDLRKHRRKLLSPVSREEN [M2N]
Result: 3.84

Ask: Output protein stability index of VMTLPSDLRKHRRKLLWPVSREEN [S17W]
Result: 2.9

Ask: Note protein stability index for the variant shown: VMTLPSDVRKHRRKLLSPVSREEN [L8V]
Result: 4.11

Ask: Answer with the recorded protein stability index of VMTLPSDLRKHQRKLLSPVSREEN [R12Q] only.
Result: 4.29

Ask: Output protein stability index of VMTLPSDLRKHRRKLLSPVSRGEN [E22G]
Result: 3.16

Ask: Give the value of protein stability index reported for the following: VMTLPSDLRKHRRKLLSPVSREEG [N24G]
Result: 3.23

Ask: Identify measured protein stability index corresponding to VMTLISDLRKHRRKLLSPVSREEN [P5I]
Result: 2.12

Ask: Determine its reported protein stability index: VMTLPSDLRKHRRKLLSLVSREEN [P18L]
Result: 3.44

Ask: Dear colleague, please send me the reported protein stability index for VMTLPSDLRKHRRKLLSPHSREEN [V19H] when you can.
Result: 4.11

Ask: Given the variant VMTLPSDLRKHRWKLLSPVSREEN [R13W] , write its reported protein stability index.
Result: 2.92

Ask: Tell me protein stability index reported for VMTLPSDLDKHRRKLLSPVSREEN [R9D]
Result: 4.1
